test system: calf thymus DNA; test: Ethidium displacement assay, apparent binding constant, calf thymus DNA; details: apparent association constant, ± 0.2 × 10^5 M^−1
What Kapp Calf Thymus DNA was measured for each of the following?
One number for each entry, in M⁻¹.

Solved entries (count: 4):
SMILES_ENTRY: COc1cccc(C(=O)Nc2cnc(N)nc2)c1
RESULT_UNIT: M⁻¹
OBSERVED: 120000

SMILES_ENTRY: COc1cccc(C(=O)Nc2ccc(N)nc2)c1
RESULT_UNIT: M⁻¹
OBSERVED: 390000

SMILES_ENTRY: COc1cc(C(=O)Nc2ccc(F)c(N)c2)cc(OC)c1OC
RESULT_UNIT: M⁻¹
OBSERVED: 260000

SMILES_ENTRY: COc1cc(/C=C/C(=O)Nc2ccc(N)c(I)c2)cc(OC)c1OC
RESULT_UNIT: M⁻¹
OBSERVED: 580000

// for each compound in input: emit Kapp Calf Thymus DNA
1. COc1cc(C(=O)Nc2cc(N)ccc2F)cc(OC)c1OC
2. COc1cc(C(=O)Nc2ccc(N)c(I)c2)cc(OC)c1OC
3. COc1cc(/C=C/C(=O)Nc2ccc(N)cc2)cc(OC)c1OC
4. COc1cc(/C=C/C(=O)Nc2ccc(N)nc2)cc(OC)c1OC
5. COc1cc(C(=O)Nc2ccc(N)c(Cl)c2)cc(OC)c1OC
6. COc1cc(OC)cc(C(=O)Nc2ccc(N)nc2)c1

(A)
[170000, 300000, 190000, 190000, 230000, 410000]
